- Measured on: UniProt:Q99NH8
- Sequence (Q99NH8 19-227): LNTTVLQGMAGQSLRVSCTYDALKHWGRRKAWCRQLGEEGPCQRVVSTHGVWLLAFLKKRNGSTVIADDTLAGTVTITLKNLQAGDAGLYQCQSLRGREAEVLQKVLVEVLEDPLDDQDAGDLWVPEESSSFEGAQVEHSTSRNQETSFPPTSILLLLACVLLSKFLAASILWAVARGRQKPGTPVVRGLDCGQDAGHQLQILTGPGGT
- Protocol: microscale thermophoresis with labelled recombinant TREM2
- Format: binding
Recorded endpoint: pKd
On this scale, pKd is minus log10 of a concentration expressed in M (mol/L).

Form: molecule = CCCCCCCCc1ccc(CC[C@](N)(CO)COP(=O)(O)O)cc1 [FTY720P] ; pKd = 4.14

###

- Measured on: human TREM2 (hTREM2) (Homo sapiens, UniProt Q9NZC2)
- Sequence (Q9NZC2 19-230): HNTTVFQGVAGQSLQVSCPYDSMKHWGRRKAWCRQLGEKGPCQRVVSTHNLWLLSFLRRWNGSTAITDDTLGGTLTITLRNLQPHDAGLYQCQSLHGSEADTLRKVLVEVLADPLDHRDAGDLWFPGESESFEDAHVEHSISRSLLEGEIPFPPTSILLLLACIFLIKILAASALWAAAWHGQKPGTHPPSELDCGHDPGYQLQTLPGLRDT
- Protocol: microscale thermophoresis with labelled recombinant TREM2
- Assay type: binding
Recorded endpoint: pKd
Give only the number. pKd is defined as minus log10 of concentration in molar units.

Form field pKd, entry CCCCCCCCc1ccc(CC[C@](N)(CO)COP(=O)(O)O)cc1 [FTY720P] : 5.17

###

- Measured on: rat TREM2 (rTREM2) (Rattus norvegicus, UniProt A0A6G8MV71)
- Sequence (A0A6G8MV71 19-229): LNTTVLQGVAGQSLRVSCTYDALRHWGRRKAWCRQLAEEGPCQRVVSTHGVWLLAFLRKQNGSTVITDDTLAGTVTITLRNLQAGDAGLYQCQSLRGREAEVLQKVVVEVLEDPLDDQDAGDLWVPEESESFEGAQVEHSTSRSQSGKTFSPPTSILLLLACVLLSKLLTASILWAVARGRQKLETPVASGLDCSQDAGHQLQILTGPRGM
- Protocol: microscale thermophoresis with labelled recombinant TREM2
Each entry below carries its recorded pKd.
Give only the number. pKd is defined as minus log10 of concentration in molar units.

Compound | pKd
CCCCCCCCCCCCC/C=C/[C@@H](O)[C@@H](N)COP(=O)(O)O | 4.25

Moving on to the next compound.
The compound listed as CCCCCCCCc1ccc(CC[C@](N)(CO)COP(=O)(O)O)cc1 [FTY720P] has a reported pKd of 5.14

###

- Measured on: human TREM2 (hTREM2) (Homo sapiens, UniProt Q9NZC2)
- Protocol: microscale thermophoresis
- Format: binding
Recorded endpoint: Kd (µM)
Please state the figure in µM; there is no need to write the unit.

GET /values?item= CCCCCCCCCCCCC/C=C/[C@@H](O)[C@@H](N)COP(=O)(O)O [S1P] &system= human TREM2 (hTREM2) (Homo sapiens, UniProt Q9NZC2) returns Kd: 62.6
